test: Selectivity index, ratio of CC50 for cytotoxicity against human MT4 cells to EC50 for antiviral activity against HIV1 3B infected in human MT4 cells; format: toxicity, cell-based; conditions: read-out: Ratio CC50/EC50
recorded_metric: selectivity ratio
// return a plain number; no unit text

Task: Give its selectivity ratio value. Item: Cc1ncc([N+](=O)[O-])n1CCSc1ccccc1
Output: 11

---

Below is a list of entries, each paired with its recorded selectivity ratio value.
experiment: Selectivity index, ratio of CC50 for African green monkey Vero cells to IC50 for antigiardial activity against Trichomonas vaginalis GT3; type: toxicity; conditions: read-out: Ratio CC50/IC50

• Cc1ncc([N+](=O)[O-])n1CCO = > 107
• Cc1ncc([N+](=O)[O-])n1CCOC(=O)Nc1ccc([N+](=O)[O-])cc1 = > 10

Task: Give its selectivity ratio value. Item: Cc1ncc([N+](=O)[O-])n1CC(C)O (stereo not drawn)
Output: > 7
